The measurements presented in this section are drawn from paper PMC5540273.

# Tested on: PRKCE
# TEST_PARAMETERS: concentration: 1 μM, replicates: in singlicate; n = 1;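 note: KINOMEscan kinase panel screen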
READOUT_TYPE: %Inh

Data request: # get_value(readout='%Inh', item= "O=C(NOCC1CC1)c1ccc(F)c(F)c1Nc1ccc(I)cc1Cl" )
Data returned: 28%

Data request: Which %Inh is reported for this compound? O=c1cc(N2CCOCC2)nc2n(Cc3cccc(Cl)c3Cl)c(C3CC3)nn12 [GSK2358994]
Data returned: 33%

Data request: GET /values?readout=%Inh&item= NS(=O)(=O)c1cccc(-c2ccc3nccc(-c4cccc(S(N)(=O)=O)c4)c3c2)c1 [GW867253]
Data returned: 18%

Data request: Give its %Inh value. Item: CC(C)(C)n1cnc2c(N)ncnc21 [SKF-97359]
Data returned: 0%

Data request: Request the reported %Inh associated with O=c1cc(N2CCOCC2)nc2n(Cc3cccc(C(F)(F)F)c3)ccn12 [GSK2297543]
Data returned: 0%

Data request: What %Inh value was documented for this compound, COc1ccc(Nc2nccc(N3CCC(NC(=O)Nc4cccc(C(C)=O)c4)C3)n2)cc1 (stereo not drawn) [GSK1379731] ?
Data returned: 0%

Data request: Which %Inh reading was recorded for the compound CC(=O)Nc1ccc(COc2ccc(Nc3ccnc4cc(-c5ccccn5)ccc34)cc2)cc1.Cl [GW440148] ?
Data returned: 0%

Data request: Requested read-out: %Inh. Entry: Fc1ccc(-c2nn3c(OCC(F)(F)F)cccc3c2-c2ccncc2)cc1 [GW514784]
Data returned: 14%

Data request: Field request: %Inh | item: COc1ccc(CNC(=O)NC2CCN(c3ccnc(Nc4ccc(OC)cc4)n3)C2)cc1 (stereo not drawn) [GSK1379727]
Data returned: 15%

Data request: State the recorded %Inh for this entry: "CCc1nc(-c2cccc(C)c2)c(-c2ccnc(NCc3ccccc3)c2)s1"
Data returned: 0%

Data request: I have this compound here, Nc1nccc(-c2c(-c3ccc(F)cc3)ncn2C2CCN(CC(F)(F)F)CC2)n1 [SB-236560] , and I need its recorded %Inh.
Data returned: 19%

Data request: Item Fc1ccc(-c2ncn(CCCN3CCOCC3)c2-c2cccnc2)cc1 [SB-211743] has what recorded %Inh?
Data returned: 0%

====

# Tested on: PLK3
# TEST_PARAMETERS: concentration: 1 μM, replicates: in singlicate; n = 1
READOUT_TYPE: %Inh (%)
Output spec: scalar in %, unitless text.

Data request: Recorded %Inh for "Cc1ccc(NC(=O)c2ccnc(N3CCN(C)CC3)c2)cc1-c1ccc(C(=O)NCC2CC2)cc1" , please?
Data returned: 5

Data request: Could you share which %Inh value was measured for "COc1ccc(COc2cc(-n3cnc4ccccc43)sc2C(N)=O)cc1" ?
Data returned: 86

Data request: Give the measured %Inh of "C[C@@H](Oc1cc(-n2cnc3ccc(NC(=O)NC(C)(C)C)cc32)sc1C(N)=O)c1ccccc1Cl" .
Data returned: 87

Data request: Can you share its %Inh? I mean this compound: NCC(NC(=O)c1cc(-c2cn[nH]c2)c(-c2ccnc3[nH]ccc23)s1)c1ccccc1.O=C(O)C(F)(F)F.O=C(O)C(F)(F)F (stereo not shown)
Data returned: 14

====

# Test system: IGF1R
# TEST_PARAMETERS: concentration: 1 μM, replicates: in singlicate; n = 1
Exercise: state measured %Inh for each of the compounds provided.
# number only, unit % dropped from output

Data request: Reported %Inh for "Cc1nnc(-c2ccc(C)c(-c3ccc(C(=O)Nc4ccc(NS(C)(=O)=O)cc4)cc3)c2)o1" : what is it?
Data returned: 17

Data request: May I ask what %Inh has been recorded for NCC(NC(=O)c1cc(-c2cn[nH]c2)c(-c2ccnc3[nH]ccc23)s1)c1ccccc1.O=C(O)C(F)(F)F.O=C(O)C(F)(F)F (centres unmarked) ?
Data returned: 0

Data request: What value of %Inh has been reported for the following compound? "CCn1cnc2c(N)ncnc21"
Data returned: 3

Data request: Could you tell me which %Inh is on file for "COc1ccc(Nc2ncc(C#N)c(Nc3ccccc3C(N)=O)n2)cc1N1CCN(C)CC1.Cl" ?
Data returned: 99.6

Data request: What value of %Inh has been reported for the following compound? "c1ccc(-c2n[nH]cc2-c2ccnc3ccccc23)nc1"
Data returned: 12

Data request: Look at this compound and give its reported %Inh. "NS(=O)(=O)CCc1cccc(Nc2nccc(-c3c(-c4cccc(NC(=O)c5c(F)cccc5F)c4)nn4ccccc34)n2)c1"
Data returned: 73

Data request: Request the reported %Inh associated with "CN1c2ccc(CNc3ccc(F)cc3)cc2-c2c(cnn2C)S1(=O)=O"
Data returned: 0

Data request: Given "O=C(NCCCN1CCOCC1)c1cccc(Nc2nccc(Nc3ccc(Oc4ccccc4)cc3)n2)c1" , state its recorded %Inh.
Data returned: 0

Data request: # %Inh lookup, item "O=C(c1ccc(-c2cc(-c3c[nH]nc3-c3ccccn3)ccn2)cc1)N1CCOCC1"
Data returned: 0

Data request: Entry "N#Cc1c(N2CCOCC2)sc(-c2ccn[nH]2)c1-c1ccc(Cl)cc1" has what %Inh?
Data returned: 0

Data request: Item under review: "C[C@@H](Oc1cc(-n2cnc3ccc(NC(=O)NC(C)(C)C)cc32)sc1C(N)=O)c1ccccc1Cl" . Reported %Inh?
Data returned: 0

Data request: Using the record for "CC(C)Oc1ccc2c(-c3ccnc(Nc4ccc(N5CCN(C)CC5)cc4)n3)cnn2n1" , report its %Inh.
Data returned: 0

Data request: Form field: reported %Inh of "Cc1cccc(Cn2ccn3c(=O)cc(N4CCOCC4)nc23)c1"
Data returned: 29

Data request: # %Inh lookup, item "Fc1ccc(-c2nn3c(OCC(F)(F)F)cccc3c2-c2ccncc2)cc1"
Data returned: 0

Data request: Which %Inh value is on record for "CC(C)(C)n1cnc2c(N)ncnc21" ?
Data returned: 0

Data request: Please give the measured %Inh for this compound: "CC(=O)Nc1ccc(COc2ccc(Nc3ccnc4cc(-c5ccccn5)ccc34)cc2)cc1.Cl"
Data returned: 0

Data request: Value lookup for %Inh; key = "CN(C1=C(c2ccccc2)C(=O)NC1=O)c1ccccc1"
Data returned: 12

Data request: Find the recorded %Inh belonging to "CNc1ncnc2[nH]ncc12" and report it.
Data returned: 0

Data request: // query %Inh value for entry "Cc1c2ccc(N(C)c3ccnc(Nc4cccc(S(N)(=O)=O)c4)n3)cc2nn1Cc1ccccc1.Cl.Cl"
Data returned: 34

Data request: Given the entry "CSc1ccc(-c2cc3ncnc(SCC(=O)O)c3s2)cc1" , report its measured %Inh.
Data returned: 2

Data request: Dear colleague, I am looking for the recorded %Inh of the following compound: "O=c1cc(N2CCOCC2)nc2n(Cc3cccc4ccccc34)ccn12"
Data returned: 4

Data request: Item under review: "NS(=O)(=O)c1cccc(-c2ccc3nccc(-c4cccc(S(N)(=O)=O)c4)c3c2)c1" . Reported %Inh?
Data returned: 0

Data request: Given the compound "COc1ccc(COc2cc(-n3cnc4ccccc43)sc2C(N)=O)cc1" , what is its reported %Inh?
Data returned: 8

Data request: Please look up its %Inh: "O=c1cc(N2CCOCC2)nc2n(Cc3cccc(Cl)c3Cl)c(C3CC3)nn12"
Data returned: 0

Data request: Name the reported %Inh value associated with the compound "O=C(NCCNc1ccnc(Nc2ccc(F)cc2)n1)Nc1ccccc1F"
Data returned: 0

Data request: Given the compound COc1ccc(Nc2nccc(N3CCC(NC(=O)Nc4cccc(C(C)=O)c4)C3)n2)cc1 (centres unmarked) , what is its reported %Inh?
Data returned: 0

Data request: Dear colleague, I am looking for the recorded %Inh of the following compound: "COc1cc2c(cc1OC[C@@H](O)CO)ncc1c3ccc(C#N)cc3[nH]c21"
Data returned: 0

Data request: Sample "Cc1cn2c(=O)cc(N3CCOCC3)nc2n1Cc1cccc(Cl)c1Cl" — what was its %Inh?
Data returned: 0

Data request: Param item = "Cl.Oc1cccc(Nc2ccnc3cc(-c4ccncc4)ccc23)c1" ; retrieve measured %Inh.
Data returned: 13
